assayed.system: T1, recombinant human CD123 (human, UniProt P26951 19-305, limits assumed)
T1 construct: also called coated CD123
T1 sequence (looked up): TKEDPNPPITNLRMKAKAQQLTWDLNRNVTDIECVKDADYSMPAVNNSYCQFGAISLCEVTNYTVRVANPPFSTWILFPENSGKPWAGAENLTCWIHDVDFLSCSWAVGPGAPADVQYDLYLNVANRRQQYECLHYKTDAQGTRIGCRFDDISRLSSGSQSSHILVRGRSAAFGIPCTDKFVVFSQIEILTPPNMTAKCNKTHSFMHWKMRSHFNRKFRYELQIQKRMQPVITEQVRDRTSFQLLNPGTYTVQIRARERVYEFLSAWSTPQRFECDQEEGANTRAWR
protocol.text: ELISA, soluble scFv on coated recombinant human CD123
Experimental: After each round of incubation, the wells were washed 10 times for the first round, 20 times for the second round and 30 times for the third round with phosphate-buffered saline containing 0.05% Tween 20 (PBST) to remove nonspecifically bound phage. Antigen binding phage were eluted with 100 µl 10 µg/ml Trypsin diluted in PBS and mixed with TG1 competent cells for 1 hour at 37° C., and the phage was amplified from the infected cells and used in the next round of biopanning. […]
value.kind: binding result

>>> value_reported("scFv MB35-E02 (scFv, Soluble scFv carried c-myc and His tags; also called CD123 (MB35-E02)) scFv: QVQLVQSGAEVKKPGSSVKVSCKASGGTFSSYAISWVRQAPGQGLEWMGGIIPIFGTANYAQKFQGRVTITADESTSTAYMELSSLRSEDTAVYYCARHGGMATMLPYGAFDIWGQGTMVTVSSGGGGSGGGGSGGGGSDIRLTQSPSSLSASVGDRVTITCRASQGISSYLNWYQQKPGKAPKLLIYAASRLQSGVPSRFSGSGSGTDFTLTISSLQPEDFATYYCQQSYSTSLTFGGGTKVEIK")
"binds"
>>> value_reported("scFv MB40-H08 (scFv, Soluble scFv carried c-myc and His tags; also called CD123 (MB40-H08)) scFv: QVQLVQSGAEVKKPGSSVKVSCKASGGTFSSYAISWVRQAPGQGLEWMGGIIPIFGTANYAQKFQGRVTITADESTSTAYMELSSLRSEDTAVYYCARNEWYSYYYYYMGVWGKGTTVTVSSGGGGSGGGGSGGGGSQSALTQPASVSGSPGQSITISCTGTSSDVGGYNYVSWYQQHPGKAPKLMIYEVSNRPSGVSNRFSGSKSGNTASLTISGLQAEDEADYYCSSYTSSSTLVVFGGGTKLTVL")
"binds"
